This listing pairs binders with measured Activation %, aequorin bioluminescence.
Target: human MCH-2R (human, UniProt Q969V1 1-340)
Sequence (Q969V1 whole entry): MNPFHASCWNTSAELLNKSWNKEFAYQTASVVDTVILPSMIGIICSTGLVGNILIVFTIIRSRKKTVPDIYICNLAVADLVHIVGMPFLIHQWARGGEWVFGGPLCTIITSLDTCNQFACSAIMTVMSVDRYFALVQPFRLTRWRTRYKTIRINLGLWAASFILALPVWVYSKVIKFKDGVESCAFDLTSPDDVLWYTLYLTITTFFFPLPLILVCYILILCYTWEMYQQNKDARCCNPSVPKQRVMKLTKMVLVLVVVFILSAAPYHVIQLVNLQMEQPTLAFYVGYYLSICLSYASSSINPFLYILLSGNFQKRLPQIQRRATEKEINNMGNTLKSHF
Assay: cell-based or functional assay
Positions of bridges follow the written chain, without caps; N, C: chain ends. No end group written: not given here.
Write the number in % without appending the unit.

Reference set (3 entries):
XCMLNRVYRPC (HELM PEPTIDE1{[ac].[dR].C.M.L.N.R.V.Y.R.P.C.[am]}$PEPTIDE1,PEPTIDE1,3:R3-12:R3$$$V2.0; SMILES CSCC[C@@H]1NC(=O)[C@@H](NC(=O)[C@@H](CCCNC(=N)N)NC(C)=O)CSSC[C@@H](C(N)=O)NC(=O)[C@@H]2CCCN2C(=O)[C@H](CCCNC(=N)N)NC(=O)[C@H](Cc2ccc(O)cc2)NC(=O)[C@H](C(C)C)NC(=O)[C@H](CCCNC(=N)N)NC(=O)[C@H](CC(N)=O)NC(=O)[C@H](CC(C)C)NC1=O) [SEQ. ID. NO. 29 (D-Arg^6, Asn^10 analog of Ac-hMCH(6-16)-NH2)]: 20
XCMLNRVYAPC (HELM PEPTIDE1{[ac].[dR].C.M.L.N.R.V.Y.A.P.C.[am]}$PEPTIDE1,PEPTIDE1,3:R3-12:R3$$$V2.0; SMILES CSCC[C@@H]1NC(=O)[C@@H](NC(=O)[C@@H](CCCNC(=N)N)NC(C)=O)CSSC[C@@H](C(N)=O)NC(=O)[C@@H]2CCCN2C(=O)[C@H](C)NC(=O)[C@H](Cc2ccc(O)cc2)NC(=O)[C@H](C(C)C)NC(=O)[C@H](CCCNC(=N)N)NC(=O)[C@H](CC(N)=O)NC(=O)[C@H](CC(C)C)NC1=O) [SEQ. ID. NO. 33 (D-Arg^6, Asn^10, Ala^14 analog of Ac-hMCH(6-16)-NH2)]: 17
DFDMLRCMLGRVYRPCWQV (disulfide 7-16 (inferred)) [human MCH]: 100

API: the following record is the query input.
[ask] Could you share which Activation %, aequorin bioluminescence value was measured for XCMLQRVYRPC (HELM PEPTIDE1{[ac].[dR].C.M.L.Q.R.V.Y.R.P.C.[am]}$PEPTIDE1,PEPTIDE1,3:R3-12:R3$$$V2.0; SMILES CSCC[C@@H]1NC(=O)[C@@H](NC(=O)[C@@H](CCCNC(=N)N)NC(C)=O)CSSC[C@@H](C(N)=O)NC(=O)[C@@H]2CCCN2C(=O)[C@H](CCCNC(=N)N)NC(=O)[C@H](Cc2ccc(O)cc2)NC(=O)[C@H](C(C)C)NC(=O)[C@H](CCCNC(=N)N)NC(=O)[C@H](CCC(N)=O)NC(=O)[C@H](CC(C)C)NC1=O) [SEQ. ID. NO. 30 (D-Arg^6, Gln^10 analog of Ac-hMCH(6-16)-NH2)] ?
[reply] 11

Numbers sourced from patent US20050020492A1.
